- Tested on: L. gasseri
- testDescription: High throughput assay screening of prebiotics
- Type: cell-based, Lactobacillus gasseri
- Parameters: key: ++: if growth and fermentation was equal to or greater than the positive control; +: if growth and fermentation was less than the positive control; +: if weak or no growth or fermentation; +^2: Bacteria demonstrated growth but no fermentation on the prebiotic
- assayContext: L. gasseri KC16-7135-1, Bladder; 2% w/v prebiotic in API 50 CHL media
measurementName: growth and fermentation vs positive control, Lg-1

> print(dat)
                                   molecule  targetdesc  reported
1  CC(=O)N[C@H]1C(O)O[C@H](CO)[C@@H](O)[C@@H]1O (stereo partly drawn) [N-Acetylglucosamine]  L. gasseri        ++
2  OC[C@H]1O[C@@H](O)[C@H](O)[C@@H](O)[C@@H]1O [Beta-D-glucose, Beta-D-Glucose]  L. gasseri        ++
3  OC[C@H]1O[C@](O)(CO)[C@@H](O)[C@@H]1O [Beta-D-fructose, Beta-D-Fructose]  L. gasseri         +
4  OC[C@H]1O[C@@H](O[C@H]2[C@H](O)[C@@H](O)[C@H](O)O[C@@H]2CO)[C@H](O)[C@@H](O)[C@@H]1O [D-Cellobiose]  L. gasseri         +
5  OCc1ccccc1O[C@@H]1O[C@H](CO)[C@@H](O)[C@H](O)[C@H]1O [Salicin]  L. gasseri        ++
6  OC[C@H]1O[C@H](O[C@H]2O[C@H](CO)[C@@H](O)[C@H](O)[C@H]2O)[C@H](O)[C@@H](O)[C@@H]1O [D-Trehalose]  L. gasseri        ++
